Provenance of the data: PubChem BioAssay (NCI)

experiment: NCI Yeast Anticancer Drug Screen. Data for the mec2-1 strain (AID 157); conditions: S. cerevisiae mec2-1 strain, at 50.0 µM
About 79,000 compounds went through this panel and 15% of them were active in at least one assay; those are over-represented in the sample as a whole. The source made the active and inactive calls. Cut-off read from the data, not from the text of the source: active = growth inhibition above about 70%; inactive = the rest.
Response enum: active, inactive

{"compound": "CCC[CH2][Sn]1([CH2]CCC)[O]CC2(CCCCC2)C[O]1", "group": "active"}
{"compound": "CCC1(C/C=C/Cl)C(=O)NC(=O)NC1=O", "group": "inactive"}
{"compound": "O=C(NCC(O)CO)c1ccc(N(CCCl)CCCl)c([N+](=O)[O-])c1[N+](=O)[O-] (configuration not stated)", "group": "inactive"}
{"compound": "OCCC[n+]1cccc2ccccc21", "group": "inactive"}
{"compound": "COc1ccc(CCN)cc1OC", "group": "inactive"}

Task item: What outcome does the record of this test show for O=C([CH-]C(=O)c1ccccc1)c1ccccc1.[CH2-]C.[CH2-]C.[Tl+3] ?
Reply: inactive

Task item: Hi, sorry to bother you, what did the test record for COC1OCC(N=[N+]=[N-])C(OC)C1O (configuration not stated) ?
Reply: inactive

Task item: Could you check what this test reported for CSC(=S)N(C)c1nc(=[N+](C)C)ss1 ?
Reply: inactive

Task item: State the result this test recorded for C1CCN2COCC2C1 (configuration not stated) .
Reply: inactive

Task item: Would you mind telling me which call this test gave O=C(Nc1ncn[nH]1)C(Cl)(Cl)Cl ?
Reply: inactive

Task item: For NC(=O)Nc1cc(NC(N)=O)cc(N(CCCl)CCCl)c1 , which call appears in the assay record?
Reply: inactive

Task item: Could you please tell me the result logged for O=S(=O)(O)O.[Cr+3].[NH-]CC[NH-].[NH-]CC[NH-].[NH-]CC[NH-] in this assay?
Reply: inactive

Task item: Please share the test call associated with CC(=O)C(C(C)=O)C(C)=O.[Cr] .
Reply: inactive

Task item: Please let me know the test result on file for COc1ccc2c(c1OC)C13CCN(C)C(C2)C12C=CC(=O)C3c1c(OC)ccc(OC)c12 (configuration not stated) .
Reply: inactive

Task item: Dear colleague, could you share the recorded outcome for N#CNC(N)=S when you have a moment?
Reply: inactive

Task item: Kindly provide the recorded test outcome for the following compound: CN(C)CC#CCN(C)C
Reply: inactive

Task item: # lookup: test call for C=C1C(=O)OC2/C=C(\C)CC/C=C(/C)CC(OC(=O)/C(=C/CO)CO)C12 (configuration not stated)
Reply: inactive

Task item: Status in this test for NC(N)=N/N=C/c1ccc(Cl)c(Cl)c1 ?
Reply: inactive

Task item: How did this test come out for CC(C)CCON=O ?
Reply: inactive

Task item: What did this assay record as the result for Clc1ccc(-c2csc3cccc[n+]23)cc1 ?
Reply: inactive

Task item: Fill in: this test's call for COc1ccc(CC(N)c2ccc(OC)cc2)cc1 (configuration not stated) is ___
Reply: inactive

Task item: How did this test come out for O=C1CN=C(c2ccccc2)c2ccncc2N1 ?
Reply: inactive

Task item: Per the records of this test, what outcome belongs to S=C([S-])N1CCCCC1.S=C([S-])N1CCCCC1.[Zn] ?
Reply: active
